# System: Epstein-Barr virus nuclear antigen 1 (EBNA-1) DNA-binding domain, Human herpesvirus 4
# test-summary: blockers of EBV EBNA-1 DNA binding – biochemical, fluorescence polarization, triplicate, confirmation (AID 2292);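 further: plate controls were EBNA-1 protein with DMSO for no effect and wells lacking EBNA-1 for full effect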
# condition-set: Recombinant EBNA-1 DBD, Cy5-DNA fluorescence polarization; at 14.8 µM; active compounds read high
Some of the results follow.
inhibition of 20% or higher: label 1. Under 20%: label 0.

stdin: Determine whether this compound has inhibition no lower than 20%: CCOc1cccc(NC(=O)Cn2nc(-c3ccc4c(c3)OCCO4)ccc2=O)c1
stdout: label 1

stdin: Now the compound CCc1nccn1S(=O)(=O)c1cccc([N+](=O)[O-])c1
stdout: label 0

stdin: Now the compound CCOc1[nH]n(-c2ccc(Cl)cc2)c(=O)c1C=Nc1ccc(O)cc1
stdout: label 0

stdin: Now the compound Cc1ccc(-c2nn(-c3ccccc3)cc2/C=C2\SC(=S)N(CCCCCC(=O)O)C2=O)o1
stdout: label 0

stdin: Now the compound CCOC(=O)c1ccc(NC(=O)C2CC(=O)Nc3nc4ccccc4n32)cc1 (stereo not given)
stdout: label 1

stdin: Now the compound N#Cc1nc(N)nc(N(c2ccccc2)c2ccccc2)n1
stdout: label 0

stdin: Now the compound COc1ccc(C)cc1NC(=O)NCc1ccccn1
stdout: label 0

stdin: Now the compound CCC(=O)Nc1ccc(C(=O)Nc2ccc3c(c2)C(=O)N(CC2CCCO2)C3=O)cc1 (stereo not given)
stdout: label 1

stdin: Now the compound COc1ccc(C(=O)Nc2cccc(NC(=O)c3ccc(OC)cc3OC)n2)c(OC)c1
stdout: label 1

stdin: Now the compound Cc1ccc(O)c(/C=N/NC(=O)COc2ccc3c(C)cc(=O)oc3c2)c1
stdout: label 0
